- measurement.notes: in vitro
- cond: human, hela cells, % viability
Rule for this label: MET means viability at 28.5 h, 10 µM is less than 90%; NOT MET means viability at 28.5 h, 10 µM is at least 90%.

[[record]]
molecule = "O=C(Nc1cnc(-c2cccc(C(F)(F)F)c2)c(-c2ccco2)n1)c1cccnc1"
discrete_label = "NOT MET"

[[record]]
molecule = "CC(=O)c1ccc(NC(=O)CSc2ncccc2C(=O)O)cc1"
discrete_label = "NOT MET"

[[record]]
molecule = "O=C(Nc1ccc2ncccc2c1)c1cccnc1"
discrete_label = "NOT MET"

[[record]]
molecule = "Oc1ccc(/C=N/N(Cc2ccccc2)Cc2ccccc2)cc1"
discrete_label = "NOT MET"

[[record]]
molecule = "O=S(=O)(c1ccc(OC(F)(F)F)cc1)N1CCN(Cc2ccc3c(c2)OCO3)CC1"
discrete_label = "MET"

[[record]]
molecule = "CC1Cc2ccccc2N1C(=O)Cn1c(CCCO)nc2ccccc21 (stereo not shown)"
discrete_label = "MET"

[[record]]
molecule = "CCOC(=O)c1cnn2c(N)c(C(N)=O)nnc12"
discrete_label = "NOT MET"

[[record]]
molecule = "CC1CN(C2(n3nnc4ccccc43)CCC(C(C)(C)C)CC2)CC(C)O1 (stereo not shown)"
discrete_label = "NOT MET"

[[record]]
molecule = "CN(C)c1ccc(C=C2CCCC3C2=NN(C(=O)CCC(=O)O)C3c2ccc(N(C)C)cc2)cc1 (stereo not shown)"
discrete_label = "MET"

[[record]]
molecule = "O=C(Cc1cccc2ccccc12)Nc1ccc(Br)cc1C(=O)O"
discrete_label = "NOT MET"


Decide: viability at 28.5 h, 10 µM of CCCCSc1nc(N)cc(N2CCCC(N3CCCC3=O)C2)n1 (stereo not shown) strictly below 90%?
NOT MET

Decide: viability at 28.5 h, 10 µM of Cc1ccc2[nH]c3c(c2c1)CCCC3NCC(O)Cc1ccccc1 (stereo not shown) strictly below 90%?
MET

Decide: viability at 28.5 h, 10 µM of Cc1[nH]c2ccccc2c1C(=O)N1CCC(CC(=O)N2CCN(c3ccccc3)CC2)CC1 strictly below 90%?
NOT MET

Decide: viability at 28.5 h, 10 µM of CCN(CC)CCNc1nc2cc(Cl)ccc2[nH]1 strictly below 90%?
NOT MET

Decide: viability at 28.5 h, 10 µM of COCc1cc(O)nc(Cc2c(Cl)cccc2Cl)n1 strictly below 90%?
NOT MET
